test system: RKO; assay: Cell viability assay of ISC-4 combined with approved antitumor agents, RKO; type: cell-based, human; set-up: key: uncooperative (−); cooperative (+); synergistic (*); ambiguous (?); conditions: ISC-4 (1, 2, or 4 μM) plus therapy at putative EC12.5, EC25, EC50; compared to monoagent activity
experimental-endpoint: Combinatorial effect of ISC-4 with the listed therapy, RKO

Study these solved cases before continuing.
COc1cccc2c1C(=O)c1c(O)c3c(c(O)c1C2=O)C[C@@](O)(C(=O)CO)C[C@@H]3O[C@H]1C[C@H](N)[C@H](O)[C@H](C)O1 = ?
Nc1nc(Cl)nc2c1ncn2[C@H]1C[C@H](O)[C@@H](CO)O1 = −
O=C1[O][Pt]2([NH][C@@H]3CCCC[C@H]3[NH]2)[O]C1=O = −
CS(=O)(=O)CCNCc1ccc(-c2ccc3ncnc(Nc4ccc(OCc5cccc(F)c5)c(Cl)c4)c3c2)o1 = −
N.N.[Cl][Pt][Cl] [Cisplatin] = −
CC(=O)O[C@H]1C(=O)[C@@]2(C)[C@H]([C@H](OC(=O)c3ccccc3)[C@]3(O)C[C@H](OC(=O)[C@H](O)[C@@H](NC(=O)c4ccccc4)c4ccccc4)C(C)=C1C3(C)C)[C@]1(OC(C)=O)CO[C@@H]1C[C@@H]2O = −

// each compound listed below needs its Combinatorial effect of ISC-4 with the listed therapy, RKO
1. CC(C)C[C@H](NC(=O)[C@H](Cc1ccccc1)NC(=O)c1cnccn1)B(O)O
2. O=c1[nH]cc(F)c(=O)[nH]1
3. COc1cc2ncnc(Nc3ccc(F)c(Cl)c3)c2cc1OCCCN1CCOCC1
4. Nc1nc2[nH]cc(CCc3ccc(C(=O)N[C@@H](CCC(=O)O)C(=O)O)cc3)c2c(=O)[nH]1
5. COc1cc([C@@H]2c3cc4c(cc3[C@@H](O[C@@H]3O[C@@H]5CO[C@@H](C)O[C@H]5[C@H](O)[C@H]3O)[C@H]3COC(=O)[C@H]23)OCO4)cc(OC)c1O [Etoposide]
6. Nc1ccn([C@@H]2O[C@H](CO)[C@@H](O)C2(F)F)c(=O)n1
7. CC[C@]1(O)C[C@H]2CN(CCc3c([nH]c4ccccc34)[C@@](C(=O)OC)(c3cc4c(cc3OC)N(C=O)[C@H]3[C@@](O)(C(=O)OC)[C@H](OC(C)=O)[C@]5(CC)C=CCN6CC[C@]43[C@@H]65)C2)C1

+
−
+
−
−
+
−

// each compound listed below needs its Combinatorial effect of ISC-4 with the listed therapy, RKO
1. CCc1c2c(nc3ccc(OC(=O)N4CCC(N5CCCCC5)CC4)cc13)-c1cc3c(c(=O)n1C2)COC(=O)[C@]3(O)CC
2. CNC(=O)c1cc(Oc2ccc(NC(=O)Nc3ccc(Cl)c(C(F)(F)F)c3)cc2)ccn1
3. CC(=O)O[C@@]12CO[C@@H]1C[C@H](O)[C@@]1(C)C(=O)[C@H](O)C3=C(C)[C@@H](OC(=O)[C@H](O)[C@@H](NC(=O)OC(C)(C)C)c4ccccc4)C[C@@](O)([C@@H](OC(=O)c4ccccc4)[C@H]21)C3(C)C

["−", "+", "−"]
